Target: UniProtKB P08913
Sequence (P08913 whole entry): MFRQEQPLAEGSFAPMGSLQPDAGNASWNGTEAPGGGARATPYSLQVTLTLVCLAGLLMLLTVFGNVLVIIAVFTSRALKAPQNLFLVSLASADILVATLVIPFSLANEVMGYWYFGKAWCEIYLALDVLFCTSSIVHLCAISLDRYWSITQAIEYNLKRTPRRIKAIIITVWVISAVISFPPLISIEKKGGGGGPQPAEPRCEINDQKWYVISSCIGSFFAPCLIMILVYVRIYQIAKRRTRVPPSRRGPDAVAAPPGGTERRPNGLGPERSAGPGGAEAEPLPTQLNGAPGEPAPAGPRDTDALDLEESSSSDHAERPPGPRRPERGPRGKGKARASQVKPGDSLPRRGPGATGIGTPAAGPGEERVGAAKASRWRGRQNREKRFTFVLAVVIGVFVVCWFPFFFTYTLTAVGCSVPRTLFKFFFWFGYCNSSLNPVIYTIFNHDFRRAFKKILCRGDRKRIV
Assay: Alpha2A agonistic activity in vitro
Assay type: cell-based
Conditions: in vitro
Classify as follows. Reported Alpha2A Intrinsic Activity greater than or equal to 0.6: Criterion met. Reported Alpha2A Intrinsic Activity below: Criterion not met.

compound="COc1cc(C)c2c(c1)C(C1=NCCN1)OCC2 (stereo not shown)" label_value="Criterion met"
compound="CCc1cccc2c1CCOC2C1=NCCN1 (single isomer, unassigned) [Example 80]" label_value="Criterion not met"
compound="CCC1Cc2c(Br)cccc2C(C2=NCCN2)O1 (stereo not shown) [Example 43]" label_value="Criterion not met"
compound="C[C@@H]1Cc2c(F)cccc2C(C2=NCCN2)O1 (stereo partly shown)" label_value="Criterion met"
compound="Cc1cccc2c1CCSC2(C)C1=NCCN1 (stereo not shown)" label_value="Criterion met"
compound="CC1OC(C2=NCCN2)c2cccc3cccc1c23 (stereo not shown)" label_value="Criterion met"
compound="NC(=O)c1cccc2c1CCOC2C1=NCCN1 (stereo not shown)" label_value="Criterion not met"
compound="Cc1cccc2c1CC(CC(F)F)OC2C1=NCCN1 (stereo not shown)" label_value="Criterion not met"
compound="C[C@H]1Cc2c(Cl)cccc2C(C2=NCCN2)O1 (stereo partly shown)" label_value="Criterion met"
compound="c1cc(-c2ccoc2)c2c(c1)C(C1=NCCN1)OCC2 (stereo not shown)" label_value="Criterion not met"

Just for reference, patent US9249127B2 is where these values come from.
